MEASUREMENT TARGET: human histamine H2 receptor (Homo sapiens, UniProt P25021)
Construct: host or cells: COS-7, transient, DEAE-dextran
Sequence (P25021 whole entry): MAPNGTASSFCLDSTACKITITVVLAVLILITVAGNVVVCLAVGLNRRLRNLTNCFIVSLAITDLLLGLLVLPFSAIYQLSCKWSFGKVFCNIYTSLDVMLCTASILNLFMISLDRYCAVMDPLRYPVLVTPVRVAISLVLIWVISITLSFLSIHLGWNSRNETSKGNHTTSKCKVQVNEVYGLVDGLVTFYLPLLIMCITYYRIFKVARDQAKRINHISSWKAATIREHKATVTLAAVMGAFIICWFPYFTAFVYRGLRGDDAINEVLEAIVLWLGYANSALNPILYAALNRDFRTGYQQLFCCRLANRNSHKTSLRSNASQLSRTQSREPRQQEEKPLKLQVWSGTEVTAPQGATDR
PROTOCOL DETAILS: [3H]tiotidine binding, histamine H2 receptor
RUN CONDITIONS: Table 2, cloned human receptor; read-out: Histamine H2 (pK1) (converted)
Where a name gives a salt, the structure may show the parent alone.
The label Condition met is reserved for Ki strictly under 1 µM; Condition not met covers values equal to or above it.

Answered examples (5):
{"COMPOUND": "C=Cc1sc2ccc(Cl)c3c2c1CN(C)CC3 [SKF-104856, reference compound]", "QUALITATIVE LABEL": "Condition not met"}
{"COMPOUND": "COc1ccc(CCNCC2CCc3ccccc3C2)cc1 (stereo not drawn)", "QUALITATIVE LABEL": "Condition met"}
{"COMPOUND": "COC(=O)C1=C(C)NC(C)=C(C(=O)NCCCN2CCC(c3ccccc3)(c3ccccc3)CC2)C1c1ccc([N+](=O)[O-])cc1.Cl.O (stereo not drawn) [Compound 2, hydrochloride hydrate]", "QUALITATIVE LABEL": "Condition met"}
{"COMPOUND": "COC(=O)C1=C(C)NC(C)=C(C(=O)OCCCN2CCC(c3ccccc3)(c3ccccc3)CC2)C1c1ccc([N+](=O)[O-])cc1.Cl (stereo not drawn) [Compound 8, hydrochloride]", "QUALITATIVE LABEL": "Condition met"}
{"COMPOUND": "O=C(NC1CCN(CCc2c[nH]c3ccccc23)CC1)c1ccccc1 [Indoramin, reference compound]", "QUALITATIVE LABEL": "Condition not met"}

Shift focus to the following entry.
Dear reviewer, please state whether COc1cc2nc(N3CCN(C(=O)C4CCCO4)CC3)nc(N)c2cc1OC (stereo not drawn) [Terazosin, hydrochloride, reference compound] has Ki strictly beneath 1 µM.
Condition not met
